# testedTarget: T1, C-terminally FLAG-tagged human Gas6 recombinant protein (hGas6-F) (human, UniProt Q14393 31-678, gamma-carboxylated glutamic acid residues in the Gla domain (producer cells co-express rat VKOR and human GGCX); positions not given)
# T1 construct: also called human Gas6-F; human Gas6 protein
# T1 sequence: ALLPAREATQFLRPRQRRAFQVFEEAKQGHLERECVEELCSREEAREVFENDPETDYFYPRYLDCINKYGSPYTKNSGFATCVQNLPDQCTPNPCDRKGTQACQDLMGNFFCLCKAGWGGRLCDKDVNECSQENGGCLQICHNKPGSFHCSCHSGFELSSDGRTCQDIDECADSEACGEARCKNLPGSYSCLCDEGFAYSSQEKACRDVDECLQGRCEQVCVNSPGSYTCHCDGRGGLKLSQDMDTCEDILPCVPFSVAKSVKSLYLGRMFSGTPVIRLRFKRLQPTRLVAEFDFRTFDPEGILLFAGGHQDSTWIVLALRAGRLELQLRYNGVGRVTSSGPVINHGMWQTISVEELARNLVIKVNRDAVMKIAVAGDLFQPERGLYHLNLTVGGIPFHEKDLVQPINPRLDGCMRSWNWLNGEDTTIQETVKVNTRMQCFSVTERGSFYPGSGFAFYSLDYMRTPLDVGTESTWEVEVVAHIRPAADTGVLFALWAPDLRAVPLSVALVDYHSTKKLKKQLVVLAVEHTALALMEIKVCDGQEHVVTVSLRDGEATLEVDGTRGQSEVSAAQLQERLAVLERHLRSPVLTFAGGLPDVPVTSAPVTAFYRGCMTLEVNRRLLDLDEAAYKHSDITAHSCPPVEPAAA
# experiment: SPR Biacore T100, captured antibody, Gas6 analyte, first test
# koff values compiled below
Kindly provide the numeric value in s⁻¹ only, without the unit symbol.

# annotated cases, reported koff shown
binder: hzKM5321 LV6HV5 antibody (antibody, V domains shown, Humanized; variant human IgG4 constant region (EU S228P, L235E, R409K), human kappa; also called B-29; LV6HV5) VH: QIHLVQSGSELKKPGASVKISCKASGYTFTNYGMNWVKQAPGQGLKWMGWINTNTGEPTYTEEFKGRFVFSLDTSVTTAYLQISTLKAEDTAVYFCARDEGWFVYWGQGTLITVSS VL: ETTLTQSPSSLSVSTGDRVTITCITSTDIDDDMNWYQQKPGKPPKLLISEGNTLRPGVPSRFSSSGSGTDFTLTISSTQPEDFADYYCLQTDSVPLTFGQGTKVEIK
unitSpec: s⁻¹
koff: 0.000277

binder: hzKM5321 LV6HV2a antibody (antibody, V domains shown, Humanized; variant human IgG4 constant region (EU S228P, L235E, R409K), human kappa; also called B-23; LV6HV2a) VH: QVHLVQSGSELKKPGASVKISCKASGYTFTNYGMNWVKQAPGQGLKWMGWINTNTGEPTYTEEFKGRFVFSLDTSVTTSYLQISTLKAEDTAVYFCARDEGWFVYWGQGTLVTVSS VL: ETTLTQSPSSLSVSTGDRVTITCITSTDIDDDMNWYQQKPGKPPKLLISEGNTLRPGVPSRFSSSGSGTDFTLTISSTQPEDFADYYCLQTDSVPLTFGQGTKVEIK
unitSpec: s⁻¹
koff: 0.000212

Query string: Please look up its koff: hzKM5320 LV1bHV8 antibody (antibody, V domains shown, Humanized; variant human IgG4 constant region (EU S228P, L235E, R409K), human kappa; also called A-12) VH: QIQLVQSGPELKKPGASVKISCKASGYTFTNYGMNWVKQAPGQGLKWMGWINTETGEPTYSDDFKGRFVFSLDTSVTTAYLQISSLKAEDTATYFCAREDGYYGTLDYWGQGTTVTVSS VL: DVVMTQSPDSLAVSLGERVTINCKASQSVSNDVAWYQQKPGQSPKLLIYYASNRYTGVPDRFSGSGSGTDFTLTISSVQAEDVAVYYCQQDYSSPWTFGQGTKLEIK
Result string: 0.000856
